assay: Aqueous solution of 3-deazaguanine methanesulfonate salt remaining clear and free of precipitate; format: physicochemical; conditions: in water; read-out: concentration of solution produced in water
QUANTITY_MEASURED: Solubility
Kindly format the answer as number then unit.

Field request: Solubility | item: CS(=O)(=O)O.Nc1cc2nc[nH]c2c(=O)[nH]1 [Methanesulfonic, 3-deazaguanine methanesulfonate salt]
41 mg/mL

* * *

assay: Water solubility of 3-deazaguanine and its acid addition salts (Table I); assay type: physicochemical; conditions: water, 3-deazaguanine salts in water; read-out: Solubility
QUANTITY_MEASURED: Solubility

Field request: Solubility | item: CS(=O)(=O)O.Nc1cc2nc[nH]c2c(=O)[nH]1 [Methanesulfonic, 3-deazaguanine methanesulfonate salt]
50 mg/mL

* * *

experiment: Water solubility of 3-deazaguanine and its acid addition salts (Table I); format: physicochemical; details: 3-deazaguanine salts; 250 mg 3-deazaguanine plus one equivalent weight of the acid, water added until complete solution
Counter-ions that a name gives are not always drawn.
QUANTITY_MEASURED: ml Water Needed to Dissolve

Field request: ml Water Needed to Dissolve | item: Nc1cc2nc[nH]c2c(=O)[nH]1 [H3 PO4]
120 to 130 mL

Query Nc1cc2nc[nH]c2c(=O)[nH]1 [HCl] next
65 to 75 mL

Query Nc1cc2nc[nH]c2c(=O)[nH]1 [H2 SO4] next
250 to 300 mL

Query CS(=O)(=O)O.Nc1cc2nc[nH]c2c(=O)[nH]1 [Methanesulfonic, 3-deazaguanine methanesulfonate salt] next
5 mL

Query Nc1cc2nc[nH]c2c(=O)[nH]1 [Maleic] next
150 to 160 mL

* * *

test: Water solubility of 3-deazaguanine and its acid addition salts (Table I); assay type: physicochemical; conditions: 3-deazaguanine salts in water
Structures can show the parent of a compound that is named as a salt.
Task for the reader: assign each of the following compounds its reported Solubility.

Field request: Solubility | item: Nc1cc2nc[nH]c2c(=O)[nH]1 [Maleic]
1600 to 1700 µg/mL

Query Nc1cc2nc[nH]c2c(=O)[nH]1 [H2 SO4] next
800 to 1000 µg/mL

Query Nc1cc2nc[nH]c2c(=O)[nH]1 [HCl] next
3300 to 3800 µg/mL

Query Nc1cc2nc[nH]c2c(=O)[nH]1 [H3 PO4] next
1900 to 2100 µg/mL
